Assay: Cytotoxicity against human HCT116 cells by MTT assay
Type: functional, cell-based
Conditions: HCT-116
Output y for records whose IC50 is lower than 40 µM, n for records at or above 40 µM.

For this molecule, is IC50 lower than 40 µM? `CCCc1nc2c(C)cc(-c3nc4ccccc4n3C)cc2n1S(=O)(=O)c1ccc(OC)cc1` y

Item: `CCCc1nc2c(C)cc(-c3nc4ccccc4n3C)cc2n1S(=O)(=O)c1ccc(F)cc1` y

Item: `CCCc1nc2c(C)cc(-c3nc4ccccc4n3C)cc2n1S(=O)(=O)c1c(C)cc(C)cc1C` y

Item: `CCCc1nc2c(C)cc(-c3nc4ccccc4n3C)cc2n1S(=O)(=O)c1ccc(C)cc1` n

Item: `CCCc1nc2c(C)cc(-c3nc4ccccc4n3C)cc2n1S(=O)(=O)c1ccc(Br)cc1` n

Item: `CCCc1nc2c(C)cc(-c3nc4ccccc4n3C)cc2n1S(=O)(=O)c1ccc(Cl)cc1` y

Item: `CCCc1nc2c(C)cc(-c3nc4ccccc4n3C)cc2n1S(=O)(=O)c1ccccc1` n

Origin of the recorded values: ChEMBL document CHEMBL3425451
